- System: patients of the CATIE study (schizophrenia)
- Procedure Text: CATIE trial: change in PANSS score (delta PANSS, LOCF) for subjects stratified by GARP genetic signature status
- Assay type: in vivo, human
- Experimental Setup: GARP-3 positive subjects; LOCF; CATIE Phases 1-2
If the reported Delta PANSS, Mean, GARP-3 positive equals or exceeds -4, assign label 1. If not, assign label 0.

Solved cases (5 shown):
> print(dat)
                                   compound  qualitative.label
1  OCCOCCN1CCN(C2=Nc3ccccc3Sc3ccccc32)CC1 [Quetiapine, quetiapine]            label 0
2  OCCN1CCN(CCCN2c3ccccc3Sc3ccc(Cl)cc32)CC1 [Perphenazine, perphenazine]            label 1
3  CN1CCN(C2=Nc3cc(Cl)ccc3Nc3ccccc32)CC1 [Clozapine, clozapine]            label 0
4  Cc1nc2n(c(=O)c1CCN1CCC(c3noc4cc(F)ccc34)CC1)CCCC2 [Risperidone, risperidone]            label 1
5  Cc1cc2c(s1)Nc1ccccc1N=C2N1CCN(C)CC1 [Olanzapine, olanzapine]            label 0

Turning to the following compound.
Q: Does Delta PANSS, Mean, GARP-3 positive meet or surpass -4 for O=C1Cc2cc(CCN3CCN(c4nsc5ccccc45)CC3)c(Cl)cc2N1 [Ziprasidone, ziprasidone] ?
Result: label 0

====

- Tested on: patients of the CATIE study (schizophrenia)
- Procedure Text: CATIE trial: change in PANSS score (delta PANSS, LOCF) for subjects stratified by GARP genetic signature status
- Type: in vivo, human
- Experimental Setup: GARP-1 positive versus negative subjects, t-test
Property Label: Relative efficacy (positive), GARP-1

> print(dat)
                         compound.structure  meas.value
1  OCCN1CCN(CCCN2c3ccccc3Sc3ccc(Cl)cc32)CC1   Decreased
2  O=C1Cc2cc(CCN3CCN(c4nsc5ccccc45)CC3)c(Cl)cc2N1   Decreased
3  Cc1nc2n(c(=O)c1CCN1CCC(c3noc4cc(F)ccc34)CC1)CCCC2    Enhanced
4       Cc1cc2c(s1)Nc1ccccc1N=C2N1CCN(C)CC1    Enhanced

====

# Delta PANSS, Mean, GARP-2 negative per record follows
- System: patients of the CATIE study (schizophrenia)
- Procedure Text: CATIE trial: change in PANSS score (delta PANSS, LOCF) for subjects stratified by GARP genetic signature status
- Format: in vivo, human
- Experimental Setup: GARP-2 negative subjects; LOCF; CATIE Phases 1-2
Returns: the value as a bare number; no unit string appended.

# annotated cases, reported Delta PANSS, Mean, GARP-2 negative shown
> print(dat)
                         compound.structure  meas.value
1       Cc1cc2c(s1)Nc1ccccc1N=C2N1CCN(C)CC1      −10.73
2  O=C1Cc2cc(CCN3CCN(c4nsc5ccccc45)CC3)c(Cl)cc2N1        3.51
3  Cc1nc2n(c(=O)c1CCN1CCC(c3noc4cc(F)ccc34)CC1)CCCC2       −4.65
4     CN1CCN(C2=Nc3cc(Cl)ccc3Nc3ccccc32)CC1      −24.33
5  OCCN1CCN(CCCN2c3ccccc3Sc3ccc(Cl)cc32)CC1        0.52

Please find the next compound below.
Q: Please report the recorded Delta PANSS, Mean, GARP-2 negative for OCCOCCN1CCN(C2=Nc3ccccc3Sc3ccccc32)CC1 .
Result: −2.86
